Consider the following molecules and their measured pEC50 readings.
experimental.system: UniProt P37231
assay.protocol: PPAR-gamma transactivation assay (GAL4 chimera, luciferase reporter) in CV-1 cells
condition.context: GAL4-PPAR LBD chimera
pEC50: −log10 of the molar value.

# molecule, experimental.system, pEC50
records = [
    ("O=C(O)Cn1ccc2cc(S(=O)(=O)N3CCN(c4ccc(C(F)(F)F)cc4)CC3)ccc21", "UniProt P37231", "< 4.00"),
    ("COc1cc2c(cc1S(=O)(=O)N1CCN(c3ccc(Cl)c(Cl)c3)CC1)CCC2CC(=O)O (stereo not drawn)", "UniProt P37231", "4.00 to 5.30"),
    ("CC1CN(c2ccc(C(F)(F)F)cn2)CCN1S(=O)(=O)c1ccc2scc(CC(=O)O)c2c1 (stereo not drawn)", "UniProt P37231", "4.00 to 5.30"),
    ("C[C@@H]1CN(c2ccc(OC(F)(F)F)cn2)C[C@H](C)N1S(=O)(=O)c1cccc2c1CC(C(=O)O)C2 (stereo partly drawn)", "UniProt P37231", "4.00 to 5.30"),
    ("C[C@@H]1CN(c2cc(F)c(Cl)c(F)c2)C[C@H](C)N1S(=O)(=O)c1cccc2c1CC(C(=O)O)C2 (stereo partly drawn)", "UniProt P37231", "< 4.00"),
    ("O=C(O)C1CCc2ccc(S(=O)(=O)N3CCN(c4ccc(Cl)c(Cl)c4)CC3)cc21 (stereo not drawn)", "UniProt P37231", "> 5.30"),
    ("C[C@@H]1CN(c2cc(Cl)c(C(F)(F)F)cn2)C[C@H](C)N1S(=O)(=O)c1cccc2c1CC(C(=O)O)C2 (stereo partly drawn)", "UniProt P37231", "< 4.00"),
    ("C[C@@H]1CN(Cc2ccc(Cl)c(Cl)c2)C[C@H](C)N1S(=O)(=O)c1cccc2c1CC(C(=O)O)C2 (stereo partly drawn)", "UniProt P37231", "4.00 to 5.30"),
    ("O=C(O)C1Cc2cccc(S(=O)(=O)N3CCN(c4cccc(OCC(F)(F)F)c4)CC3)c2C1 (stereo not drawn)", "UniProt P37231", "4.00 to 5.30"),
    ("O=C(O)C1CCc2ccc(S(=O)(=O)N3CCN(c4ccc(C(F)(F)F)cc4)CC3)cc21 (stereo not drawn)", "UniProt P37231", "> 5.30"),
]

Q: Sample C[C@@H]1CN(c2ccc(C(F)(F)F)c(Cl)c2)C[C@H](C)N1S(=O)(=O)c1cccc2c1CC(C(=O)O)C2 (single isomer, unassigned) [Example 138] — what was its pEC50?
Result: < 4.00

Q: Sample C[C@H]1CN(S(=O)(=O)c2ccc3c(c2)C(C(=O)O)CC3)CCN1c1ccc(C(F)(F)F)c(F)c1 (stereo partly drawn) — what was its pEC50?
Result: > 5.30

Q: Sample O=C(O)C1CCc2ccc(S(=O)(=O)N3CCN(c4ccc(OC(F)(F)F)cc4)CC3)cc21 (stereo not drawn) — what was its pEC50?
Result: > 5.30

Q: Sample O=C(O)C1Cc2cccc(S(=O)(=O)N3CCN(Cc4ccc(OC(F)(F)F)cc4)CC3)c2C1 (stereo not drawn) — what was its pEC50?
Result: > 5.30

Q: Sample C[C@@H]1CN(c2ccc(OC(F)(F)F)cc2)C[C@H](C)N1S(=O)(=O)c1ccc2scc(CC(=O)O)c2c1 — what was its pEC50?
Result: 4.00 to 5.30

====

experimental.system: UniProt Q07869
assay.protocol: PPAR-alpha transactivation assay (GAL4 chimera, luciferase reporter) in CV-1 cells
condition.context: GAL4-PPAR LBD chimera
pEC50: −log10 of the molar value.
Consider the following compounds and their measured pEC50 readings.

# compound, pEC50
measured = [
    ("C[C@@H]1CN(c2cccc(OC(F)(F)F)c2)C[C@H](C)N1S(=O)(=O)c1cccc2c1CC(C(=O)O)C2 (some centres unmarked) [Example 115]", "< 4.00"),
]

Q: Sample C[C@@H]1[C@H](C)N(c2ccc(C(F)(F)F)cn2)CCN1S(=O)(=O)c1ccc2scc(CC(=O)O)c2c1 (stereo in doubt) [Example 87] — what was its pEC50?
Result: 4.00 to 5.30

Q: Sample C[C@@H]1CN(Cc2ccc(Cl)c(Cl)c2)C[C@H](C)N1S(=O)(=O)c1cccc2c1CC(C(=O)O)C2 (some centres unmarked) [Example 111] — what was its pEC50?
Result: < 4.00

Q: Sample C[C@H]1CN(S(=O)(=O)c2cccc3c2CC(C(=O)O)C3)[C@@H](C)CN1c1ccc(C(F)(F)F)cn1 (some centres unmarked) [Example 116] — what was its pEC50?
Result: 4.00 to 5.30

Q: Sample C[C@@H]1CN(Cc2ccc(OC(F)(F)F)cc2)C[C@H](C)N1S(=O)(=O)c1ccc2scc(CC(=O)O)c2c1 [Example 110] — what was its pEC50?
Result: < 4.00

====

experimental.system: PPAR-alpha (UniProt Q07869)
assay.protocol: PPAR-alpha transactivation assay (GAL4 chimera, luciferase reporter) in CV-1 cells
condition.context: GAL4-PPAR LBD chimera
pEC50: −log10 of the molar value.
endpoint: pEC50

Solved entries (count: 5):
# molecule, pEC50
records = [
    ("COc1cc2c(cc1S(=O)(=O)N1CCN(c3ccc(Cl)c(Cl)c3)CC1)CCC2CC(=O)O (centres unmarked)", "4.00 to 5.30"),
    ("O=C(O)C1Cc2ccc(S(=O)(=O)N3CCN(c4ccc(Cl)c(Cl)c4)CC3)cc2C1 (centres unmarked)", "4.00 to 5.30"),
    ("O=C(O)C1Cc2cccc(S(=O)(=O)N3CCN(c4ccc(Cl)c(Cl)c4)CC3)c2C1 (centres unmarked)", "4.00 to 5.30"),
    ("O=C(O)C1Cc2cccc(S(=O)(=O)N3CCN(c4ccc(C(F)(F)F)cn4)CC3)c2C1 (single isomer, unassigned)", "4.00 to 5.30"),
    ("O=C(O)C1CCc2ccc(S(=O)(=O)N3CCN(c4ccc(C(F)(F)F)cc4)CC3)cc21 (centres unmarked)", "> 5.30"),
]

Q: Sample C[C@H]1CN(c2ccc(C(F)(F)F)cn2)C[C@H](C)N1S(=O)(=O)c1ccc2c(c1)C(C(=O)O)CC2 (some centres unmarked) — what was its pEC50?
Result: > 5.30

Q: Sample C[C@H]1CN(S(=O)(=O)c2ccc3c(c2)C(C(=O)O)CC3)CCN1c1ccc(C(F)(F)F)c(F)c1 (some centres unmarked) — what was its pEC50?
Result: > 5.30

Q: Sample C[C@H]1CN(S(=O)(=O)c2ccc3c(c2)C(C(=O)O)CC3)CCN1c1ccc(Cl)c(Cl)c1 (some centres unmarked) — what was its pEC50?
Result: > 5.30

====

experimental.system: PPAR-gamma (UniProt P37231)
Sequence (P37231 1-505): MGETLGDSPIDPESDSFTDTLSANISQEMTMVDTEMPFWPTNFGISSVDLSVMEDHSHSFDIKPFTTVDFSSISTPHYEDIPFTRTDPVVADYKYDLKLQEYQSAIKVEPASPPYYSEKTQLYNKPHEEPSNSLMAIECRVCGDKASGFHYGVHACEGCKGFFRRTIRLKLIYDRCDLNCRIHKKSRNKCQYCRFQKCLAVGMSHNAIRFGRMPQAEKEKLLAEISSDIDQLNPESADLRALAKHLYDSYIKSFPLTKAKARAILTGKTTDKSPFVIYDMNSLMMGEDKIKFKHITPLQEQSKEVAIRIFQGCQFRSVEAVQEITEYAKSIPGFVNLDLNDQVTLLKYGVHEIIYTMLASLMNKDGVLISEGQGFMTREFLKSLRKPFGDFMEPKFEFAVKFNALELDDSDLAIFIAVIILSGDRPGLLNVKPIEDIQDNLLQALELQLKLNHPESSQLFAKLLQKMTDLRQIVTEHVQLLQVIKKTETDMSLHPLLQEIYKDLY
assay.protocol: PPAR-gamma transactivation assay (GAL4 chimera, luciferase reporter) in CV-1 cells
Format: cell-based, murine and human
condition.context: GAL4-PPAR LBD chimera
pEC50: −log10 of the molar value.
endpoint: pEC50

Solved entries (count: 3):
# molecule, experimental.system, endpoint, reported.result
rows = [
    ("C[C@H]1CN(S(=O)(=O)c2ccc3c(c2)C(C(=O)O)CC3)CCN1c1ccc(C(F)(F)F)cn1 (stereo partly shown)", "PPAR-gamma (UniProt P37231)", "pEC50", "> 5.30"),
    ("O=C(O)C1Cc2ccc(S(=O)(=O)N3CCN(c4ccc(C(F)(F)F)cn4)CC3)cc2C1 (stereo not shown)", "PPAR-gamma (UniProt P37231)", "pEC50", "4.00 to 5.30"),
    ("C[C@@H]1CN(c2ccc(OC(F)(F)F)cc2)C[C@H](C)N1S(=O)(=O)c1cccc2c1CC(c1nnn[nH]1)C2 (stereo partly shown)", "PPAR-gamma (UniProt P37231)", "pEC50", "4.00 to 5.30"),
]

Shifting focus to the molecule that follows.
Q: Sample C[C@@H]1CN(Cc2ccc(OC(F)(F)F)cc2)C[C@H](C)N1S(=O)(=O)c1cccc2c1CC(C(=O)O)C2 (single isomer, unassigned) [Example 140] — what was its pEC50?
Result: 4.00 to 5.30
